- Substrate: F protein of hMPV virus strain A2 (human metapneumovirus, strain A2)
- RUN DESCRIPTION: cell-based or functional assay
PROPERTY MEASURED: EC50 (nM), plaque reduction, hMPV A2, Vero cells
Respond with the bare value in nM.

| BINDER | REPORTED MEASUREMENT |
| --- | --- |
| LVKKIDEFDASISQVNEKINQSLEEIRKSDELLHNVGSGSGK (modifications not checked) [Compound 29] | 41.6 |
| FDASIEEVNRRIEESLRRIEESDRRLEEVNAEAAAKK (modifications not checked) [Compound 42] | 26.1 |
| SDEFDKKIEEVNKKIEESLKKIEESDKKLGSGSGK (modifications not checked) [Compound 20] | 7.47 |
| WDEFDASISQVNEKINQSLEEIRKSDELLHNVNALEAAAKK (modifications not checked) [Compound 38] | 128 |
| DEFDASISQVNEKINQSLEEIRKSDELLHNEAAAKK (modifications not checked) [Compound 28] | 58.6 |

Let us move to another entry and its EC50 (nM), plaque reduction, hMPV A2, Vero cells.
Recorded EC50 (nM), plaque reduction, hMPV A2, Vero cells (binder SDEFDKKIEEVNKKIEESLKKIEESDKKLEAAAKK (modifications not checked) [Compound 16] ): 7.35
